# Test system: MS2 coat protein
# assay_procedure: apparent KD of MS2 coat protein; designed switch direction (-1 OFF switch, 1 ON switch): -1; higher = weaker reporter binding
# test_context: input ligand: FMN 200 uM
measured_endpoint: apparent KD of MS2 coat protein (nM)
Numbers only, in nM.

Please review the following examples before continuing.
{"columns": ["monomer_sequence", "apparent KD of MS2 coat protein / nM"],
 "data": [
  ["GUCCGGCAUGUAGGAUAUGGAUCCGAUUAGGAUUUAGAAGGACAUGAGGAUCACCCAUGUACAUUUAAUUAGUCAUUACCGGAC [EXclNG1-LROPPY03] (Eterna round: R96, puzzle: Exclusion NG 1)", 14.6],
  ["UAUUUGCAAGCGAGAUCCCACAUGAGGAUCACCCAUGUUCUUUGAAAGUACAGAAUUACUGUACAAGCUCGUCUUAU [Winner reversed engineered 31] (Eterna round: R97, puzzle: Sensor, turn-off variant 1)", 62.6],
  ["UAUUAGCAAGUGAGAUCCCACAUGAGGAUCACCCAUGUGCUCGUCUUUUAACGUACUGUGAGGAAACUCACGGUACG [Sensor-V1 #82] (Eterna round: R97, puzzle: Sensor, turn-off variant 1)", 62.1],
  ["CCACUGUCAGGAUAUCGUGCAUAACGUUUACAUUUUAUGUGCGAGAAGGGACAUGAGGAUCACCCAUGUAAACG [Omei Ex4 A28PK2] (Eterna round: R97, puzzle: Exclusion 4)", 206],
  ["UUUAUGUCAGGAUAUACAUGAGGAUCACCCAUGUAUAUCUUAAAGUAUACAUGGGAAUGUAGAAGGGACGUCCU [LRO-Excl05-29-mod of Pseudoloop5 by Omei] (Eterna round: R97, puzzle: Exclusion 3)", 31.3]
]}

Items follow; give apparent KD of MS2 coat protein for each.
1. AGAAUGGUACAGGAUAUAGCAUCUAACUGCAUGCUAGAAGGGUAUACAUGAGGAUCACCCAUGUAGUCGUGGAU [Eternabot (L1) Solution 13] (Eterna round: R97, puzzle: Exclusion 6)
2. AAUAGUCGGUAGGAUAUCCACGGAUGACCGGCAGGAGAAGGGCCGACUUGAGGAUCACCCAAGUAUGGUCCAAC [Ortiqumate] (Eterna round: R97, puzzle: Exclusion 6)
3. GUGAUCUAUCAUGUAAUGAACAUGAGGAUCACCCAUGUAGGCAAGUUUUUUGCUCGUCACAUAAUAAGAUAGAUCAC [Antenna 19 - Jieux - Sensor, turn-off variant 1] (Eterna round: R97, puzzle: Sensor, turn-off variant 1)

1. 55.2
2. 25.1
3. 14.3

apparent KD of MS2 coat protein of AAAUAGCAAGUGUGAUCCUACAUGAGGAUCACCCAUGUGUUCGUCUUAUUUGAAGACAACACAAAAGUGUUGUCUUA [Omei Mir OFFv1 B2] (Eterna round: R97, puzzle: Sensor, turn-off variant 1) on MS2 coat protein? 32.9

* * *

# Test system: K4 kissing-loop RNA reporter;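 also: bound reporter read as fluorescence of individual clusters on recovered sequencing chips by microscopy, with normalized cluster intensities fitted with a binding model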
# assay_procedure: apparent KD of K4 kissing-loop reporter; higher = weaker reporter binding
# test_context: Eterna round: R107; input ligand: none
So basically every entry gets a class from its apparent KD of K4 kissing-loop reporter, ranges being b0: < 200 nM; b1: ≥ 200 nM and < 400 nM; b2: ≥ 400 nM

{"columns": ["monomer_sequence", "class_name"],
 "data": [
  ["CUAGCUAGCAUGGAAACAUGCUAGCUAGAUUAGGAUAUGACGUAAGUCAGAAGGGAUAAAUGGAGUGAUGUUCCGGACGCAAGUC [#2 Same State - FMN A Attempt #4 (HarryS)]", "b1"],
  ["GCAGUGAUGUUGCGGAUGUACAGUGGCGUGCGAGGACCGGUACGGCCGCCACUCGUACAGCACAAGCUAAUACAUCGAUAGGUGA [whbob_SS_Tryp_A_m2]", "b1"],
  ["CCGUAGCGAUCGGCCGCCACUCAAGAUCGCCAACUAUCACACGGUUCUCCCGAGUGAUGUUCUAGGAGGACCGGGAUUGUUGCUC [theeternabot_exclusion_KL_Trp_B_13]", "b1"]
]}

Class label required: `AAGCAGUCACUCGAACCCAUCGAAGAUGGUCGAGGACCGGUACGGCCGCCACUCGGAGUGAUGUUCCGCAGACUGCAAAAUAAAA` b2

Class label required: AGGUCCGAGCCCGUAAGGGCUCGGACCUGUUAGGAUAUGACGUUAUUCAGAAGGGAUGGGUGGAGUGAUGUUCCACCCGCAAGGG [#2 Same State - FMN A Attempt #10 (HarryS)] b0

Class label required: GGAUAGGAUAGAGGAUAUGGUAGUGAUGUUACCAAACUGGUUAAACAUGUCAGAAAACUGGCAUGACCAGAAGGUUGUCCUAUCG [FmnBX 27 U9+U75] b0

Class label required: UUUUAGGUAUCUGAUACCAGAGAAAAUAUAUGUAGUGAUGUUAUAUACAAAAUAAUUAAGCUCCCUUGGCAGCAGUUUUAAUUUU [AstrosExc-TheB#5] b2

Class label required: UGGAGUUGACGAAAAGUCAACUCCUGAGAUACCAGUGACGAAAGUCACCCUUGGCAGCUCACUGCCAGUGAUGUUGGUAAAUAAA [#OpenEnded 3] b0

Class label required: UUGGAGUGAUGUUCCAUAUCUUGAGCGGAAGGAGCGGCAAAAGUGCCAGGUAGGUCGCCGCAGAAGGUACCAGUGAUGUUGGAAA [Same State Arginine A GF 3] b0

Class label required: UAGUCCUAGUGAUGGUUAUCACGUGGUGGGCGAGGACCGGUACGGCCGCCACUCGACUUUGCAGUGAUGUUGCAAUCCGGACAAU [Exclusion - Tryptophan A (Freestyle 17)] b1
